Values from ChEMBL document CHEMBL2069302

Listing: pIC50 of selected compounds
# measured.target: Sodium/potassium-transporting ATPase
# assay.method.text: Inhibition of Sodium/potassium-transporting ATPase
Give only the number. pIC50 is defined as minus log10 of concentration in molar units.

- CC(=O)N[C@H]1[C@H](O[C@@H]2CO[C@@H](O[C@H]3CC[C@]4(C)C5=C(CC[C@H]4C3(C)C)[C@@H]3CC[C@H]([C@H](C)CC(=O)C=C(C)C)[C@@]3(C)CC5)[C@H](O[C@@H]3O[C@H](CO)[C@@H](O)[C@H](O)[C@H]3NC(C)=O)[C@H]2O)O[C@H](CO)[C@H](O)[C@@H]1O (relative stereo): 4.25

Problem: Please report pIC50 for the following compound: CC(=O)N[C@H]1[C@H](O[C@H]2[C@H](O[C@H]3CC[C@]4(C)C5=C(CC[C@H]4C3(C)C)[C@@H]3CC[C@H]([C@H](C)CC(=O)C=C(C)C)[C@@]3(C)CC5)OC[C@@H](O)[C@@H]2O)O[C@H](CO[C@@H]2O[C@H](CO)[C@@H](O)[C@H](O)[C@H]2O[C@@H]2O[C@H](CO)[C@@H](O)[C@H](O)[C@H]2O)[C@@H](O)[C@@H]1O
Solution: 4.26

###

# measured.target: Sodium/potassium-transporting ATPase
# assay.method.text: Inhibition of Sodium/potassium-transporting ATPase
Listing: IC50 of selected molecules

Recorded IC50, per entry:
- CC(=O)N[C@H]1[C@H](O[C@@H]2CO[C@@H](O[C@H]3CC[C@@]4(C)[C@@H](CCC5=C6[C@H](O)C[C@H]([C@H](C)CC(=O)C=C(C)C)[C@@]6(C)CC[C@@]54O)C3(C)C)[C@H](O[C@@H]3O[C@H](CO[C@@H]4O[C@H](CO)[C@@H](O)[C@H](O)[C@H]4O[C@@H]4O[C@H](CO)[C@@H](O)[C@H](O)[C@H]4O)[C@@H](O)[C@H](O)[C@H]3NC(C)=O)[C@H]2O)O[C@H](CO)[C@H](O)[C@@H]1O [SARASINOSIDE H1]: > 75.7 µM
- CC(=O)N[C@H]1[C@H](O[C@@H]2CO[C@@H](O[C@H]3CC[C@]4(C)C5=CC[C@@]6(C)C(=C(CC[C@H]4C3(C)C)O5)CC[C@@H]6[C@H](C)CC(=O)C=C(C)C)[C@H](O[C@@H]3O[C@H](CO[C@@H]4O[C@H](CO)[C@@H](O)[C@H](O)[C@H]4O[C@@H]4O[C@H](CO)[C@@H](O)[C@H](O)[C@H]4O)[C@@H](O)[C@H](O)[C@H]3NC(C)=O)[C@H]2O)O[C@H](CO)[C@H](O)[C@@H]1O [SARASINOSIDE M]: > 76.7 µM
- CC(=O)N[C@H]1[C@H](O[C@@H]2CO[C@@H](O[C@H]3CC[C@]4(C)C5=CC[C@]6(C)[C@@H]([C@H](C)CC(=O)C=C(C)C)CC[C@H]6C5=CC[C@H]4C3(C)C)[C@H](O[C@@H]3O[C@H](CO[C@@H]4O[C@H](CO)[C@@H](O)[C@H](O)[C@H]4O[C@@H]4O[C@H](CO)[C@@H](O)[C@H](O)[C@H]4O)[C@@H](O)[C@H](O)[C@H]3NC(C)=O)[C@H]2O)O[C@H](CO)[C@H](O)[C@@H]1O [SARASINOSIDE A2]: > 77.7 µM
- CC(=O)N[C@H]1[C@H](O[C@@H]2CO[C@@H](O[C@H]3CC[C@]4(C)C5=C(CC[C@H]4C3(C)C)[C@@H]3CC[C@H]([C@H](C)CC(=O)C=C(C)C)[C@@]3(C)CC5)[C@H](O[C@@H]3O[C@H](CO[C@@H]4O[C@H](CO)[C@@H](O)[C@H](O)[C@H]4O[C@@H]4O[C@H](CO)[C@@H](O)[C@H](O)[C@H]4O)[C@@H](O)[C@H](O)[C@H]3NC(C)=O)[C@H]2O)O[C@H](CO)[C@H](O)[C@@H]1O [SARASINOSIDE A1]: 46.5 µM

Lab note: next molecule to report on.
Problem: Please report IC50 for the following molecule: CC(=O)N[C@H]1[C@H](O[C@@H]2CO[C@@H](O[C@H]3CC[C@]4(C)C5=C(CC[C@H]4C3(C)C)[C@@H]3CC[C@H]([C@H](C)CC(=O)CC(C)(C)O)[C@@]3(C)CC5)[C@H](O[C@@H]3O[C@H](CO[C@@H]4O[C@H](CO)[C@@H](O)[C@H](O)[C@H]4O[C@@H]4O[C@H](CO)[C@@H](O)[C@H](O)[C@H]4O)[C@@H](O)[C@H](O)[C@H]3NC(C)=O)[C@H]2O)O[C@H](CO)[C@H](O)[C@@H]1O [SARASINOSIDE J]
Solution: > 76.5 µM

###

# measured.target: Sodium/potassium-transporting ATPase
# assay.method.text: Inhibition of Sodium/potassium-transporting ATPase
pIC50: −log10 of the molar value.
property: pIC50

Problem: Please report pIC50 for the following compound: CC(=O)N[C@H]1[C@H](O[C@@H]2CO[C@@H](O[C@H]3CC[C@]4(C)C5=CC[C@]6(C)[C@@H]([C@H](C)CC(=O)C=C(C)C)CC[C@H]6[C@@]5(O)CC[C@@]4(O)C3(C)C)[C@H](O[C@@H]3O[C@H](CO[C@@H]4O[C@H](CO)[C@@H](O)[C@H](O)[C@H]4O[C@@H]4O[C@H](CO)[C@@H](O)[C@H](O)[C@H]4O)[C@@H](O)[C@H](O)[C@H]3NC(C)=O)[C@H]2O)O[C@H](CO)[C@H](O)[C@@H]1O [SARASINOSIDE O]
Solution: < 4.12

Problem: Please report pIC50 for the following compound: CC(=O)N[C@H]1[C@H](O[C@@H]2CO[C@@H](O[C@H]3CC[C@]4(C)C5=C(CC[C@H]4C3(C)C)C3=CC[C@H]([C@H](C)CC(=O)C=C(C)C)[C@@]3(C)CC5)[C@H](O[C@@H]3O[C@H](CO[C@@H]4O[C@H](CO)[C@@H](O)[C@H](O)[C@H]4O[C@@H]4O[C@H](CO)[C@@H](O)[C@H](O)[C@H]4O)[C@@H](O)[C@H](O)[C@H]3NC(C)=O)[C@H]2O)O[C@H](CO)[C@H](O)[C@@H]1O [SARASINOSIDE A3]
Solution: < 4.11

Problem: Please report pIC50 for the following compound: CO[C@@H]1C[C@H]([C@H](C)CC(=O)C=C(C)C)[C@@]2(C)CC[C@@]3(O)C(=C12)CC[C@H]1C(C)(C)[C@@H](O[C@@H]2OC[C@@H](O[C@@H]4O[C@H](CO)[C@H](O)[C@H](O)[C@H]4NC(C)=O)[C@H](O)[C@H]2O[C@@H]2O[C@H](CO[C@@H]4O[C@H](CO)[C@@H](O)[C@H](O)[C@H]4O[C@@H]4O[C@H](CO)[C@@H](O)[C@H](O)[C@H]4O)[C@@H](O)[C@H](O)[C@H]2NC(C)=O)CC[C@@]13C [SARASINOSIDE H2]
Solution: < 4.13
